# pKd annotations
- System Tested: T1, recombinant BACE1 (BACE1 extracellular domain, R&D Systems Cat#931-AS) (UniProt P56817 22-457)
- T1 construct: extracellular domain; also called BACE1 extracellular domain protein
- T1 sequence (P56817 22-457): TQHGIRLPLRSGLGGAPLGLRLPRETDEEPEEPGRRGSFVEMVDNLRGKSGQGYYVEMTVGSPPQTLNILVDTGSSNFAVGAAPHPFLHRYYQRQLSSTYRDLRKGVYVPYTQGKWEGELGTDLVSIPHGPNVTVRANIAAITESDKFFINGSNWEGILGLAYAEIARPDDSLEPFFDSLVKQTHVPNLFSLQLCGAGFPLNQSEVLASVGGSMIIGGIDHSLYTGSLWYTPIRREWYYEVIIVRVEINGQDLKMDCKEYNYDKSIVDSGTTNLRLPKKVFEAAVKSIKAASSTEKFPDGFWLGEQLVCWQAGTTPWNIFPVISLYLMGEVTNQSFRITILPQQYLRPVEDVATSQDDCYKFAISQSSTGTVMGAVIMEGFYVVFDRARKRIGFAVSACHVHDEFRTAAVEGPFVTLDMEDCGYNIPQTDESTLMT
- Assay: SPR Biacore 8K, antibody captured, BACE1 analyte
- Procedure: The binding affinities of the affinity matured humanized 2H8 variants for BACE1 were determined by surface plasmon resonance using a Biacore™ 8K instrument. […] The binding was monitored for 300 seconds and then dissociation was monitored for 600+ seconds in HBS-EP+ running buffer (GE Healthcare Life Sciences, BR100669). Binding response was corrected by subtracting the RU from a blank flow cell. A 1:1 Langmuir model of simultaneous fitting of kₒₙ and koff was used for kinetics analysis.
pKd here is simply -log10 of the concentration when that concentration is written in mol/L.

GET /value?item= hu2H8v29.21 (antibody, V domains shown, captured via human Fc; also called hu2H8_LC5 + hu2H8_HC6.10) VH: QVQLVQSGAEVKKPGASVKVSCKASGYTFTNFWIHWVRQAPGQGLEWMGMIDPSDSYTKYNQKFKARATLTVDTSTSTVYMELSSLRSEDTAVYYCARSGVALPYWGQGTLVTVSS VL: DIQMTQSPSSLSASVGDRVTITCKASQDVGRNVAWYQQKPGKSPKSLIYSASHRYSGVPSRFSGSGSGTDFTLTISSLQPEDFATYFCQQYNSYPYTFGQGTKVEIK &field=pKd returns 8.18

GET /value?item= hu2H8v29.19 (antibody, V domains shown, captured via human Fc; also called hu2H8_LC5 + hu2H8_HC6.8) VH: QVQLVQSGAEVKKPGASVKVSCKASGYTFTNFWIHWVRQAPGQGLEWMGMIDPSGSYTKYNQKFKARATLTVDTSTSTVYMELSSLRSEDTAVYYCARSGVAFPYWGQGTLVTVSS VL: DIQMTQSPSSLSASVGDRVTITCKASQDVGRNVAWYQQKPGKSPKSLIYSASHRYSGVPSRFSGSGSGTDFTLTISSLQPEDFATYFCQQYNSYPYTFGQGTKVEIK &field=pKd returns 8.00

GET /value?item= hu2H8v29.18 (antibody, V domains shown, captured via human Fc; also called hu2H8_LC5 + hu2H8_HC6.7) VH: QVQLVQSGAEVKKPGASVKVSCKASGYTFTNFWIHWVRQAPGQGLEWMGMIDPSESYTKYNQKFKARATLTVDTSTSTVYMELSSLRSEDTAVYYCARSGVAFPYWGQGTLVTVSS VL: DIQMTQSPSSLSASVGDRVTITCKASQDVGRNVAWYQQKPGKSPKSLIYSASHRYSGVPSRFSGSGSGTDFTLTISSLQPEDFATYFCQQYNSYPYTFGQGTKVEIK &field=pKd returns 7.99

GET /value?item= hu2H8v29.16 (antibody, V domains shown, captured via human Fc; also called hu2H8_LC5 + hu2H8_HC6.5) VH: QVQLVQSGAEVKKPGASVKVSCKASGYTFTNFWIHWVRQAPGQGLEWMGIIDPSDSYTKYNQKFKARATLTVDTSTSTVYMELSSLRSEDTAVYYCARSGVAFPYWGQGTLVTVSS VL: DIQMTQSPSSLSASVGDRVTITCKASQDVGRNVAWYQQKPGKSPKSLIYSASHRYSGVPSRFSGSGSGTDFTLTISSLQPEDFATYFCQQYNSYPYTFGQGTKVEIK &field=pKd returns 7.50

GET /value?item= hu2H8v29.24 (antibody, V domains shown, captured via human Fc; also called hu2H8_LC5 + hu2H8_HC6.13) VH: QVQLVQSGAEVKKPGASVKVSCKASGYTFTNFWIHWVRQAPGQGLEWMGMIDPSDSYTKYNQKFKARATLTVDTSTSTVYMELSSLRSEDTAVYYCARSGASLPYWGQGTLVTVSS VL: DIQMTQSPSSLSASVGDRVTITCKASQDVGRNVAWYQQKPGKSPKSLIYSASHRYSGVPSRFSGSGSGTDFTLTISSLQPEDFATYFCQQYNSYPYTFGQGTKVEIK &field=pKd returns 8.24

GET /value?item= hu2H8v29.14 (antibody, V domains shown, captured via human Fc; also called hu2H8_LC5 + hu2H8_HC6.3) VH: QVQLVQSGAEVKKPGASVKVSCKASGYTFNSYWIHWVRQAPGQGLEWMGMIDPSDSYTKYNQKFKARATLTVDTSTSTVYMELSSLRSEDTAVYYCARSGVAFPYWGQGTLVTVSS VL: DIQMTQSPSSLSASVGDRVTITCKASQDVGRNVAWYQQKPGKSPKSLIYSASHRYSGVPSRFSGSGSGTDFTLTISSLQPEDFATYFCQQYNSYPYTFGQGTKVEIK &field=pKd returns 8.03

GET /value?item= hu2H8v29.28 (antibody, V domains shown, captured via human Fc; also called hu2H8_LC5.12 + hu2H8_HC6.17) VH: QVQLVQSGAEVKKPGASVKVSCKASGYTFTNFWIHWVRQAPGQGLEWMGMIDPDSSYTKYNQKFKARATLTVDTSTSTVYMELSSLRSEDTAVYYCARSGASLPYWGQGTLVTVSS VL: DIQMTQSPSSLSASVGDRVTITCKASQDVGRNVAWYQQKPGKSPKSLIYSASHYYSGVPSRFSGSGSGTDFTLTISSLQPEDFATYFCQQYYSYPYTFGQGTKVEIK &field=pKd returns 8.32

GET /value?item= hu2H8v29.23 (antibody, V domains shown, captured via human Fc; also called hu2H8_LC5 + hu2H8_HC6.12) VH: QVQLVQSGAEVKKPGASVKVSCKASGYTFTNFWIHWVRQAPGQGLEWMGMIDPSDSYTKYNQKFKARATLTVDTSTSTVYMELSSLRSEDTAVYYCARSGVSLPYWGQGTLVTVSS VL: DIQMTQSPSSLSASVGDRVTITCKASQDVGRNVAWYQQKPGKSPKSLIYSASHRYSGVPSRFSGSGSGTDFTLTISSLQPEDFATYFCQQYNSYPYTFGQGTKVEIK &field=pKd returns 8.15
